target: HLA-B*44:02 (human); assay: radioligand competition, purified MHC; conditions: remark: other sources report otherwise
Experimental readout: IC50

KRVDWTIEY (modifications not checked) [… (SEQ ID NO: 29)] :: > 70 µM
FGDDTVIEV (modifications not checked) [… (SEQ ID NO: 23)] :: > 70 µM
